Tested on: Renilla luciferase (RLuc)
ASSAY_NAME: normalised percent inhibition of luminescence (vs positive and negative controls); higher = stronger inhibition
CONDITION_LABEL: metal salt concentration 0.05 mM; 100 mM HEPES buffer
ASSAY_READOUT: normalised percent inhibition (%)

// solved cases for normalised percent inhibition follow
MOLECULE: [Cl][Pt-2]([Cl])([Cl])[Cl].[K+].[K+] [potassium tetrachloroplatinate(II)]
TEST_RESULT: -3.94
//
MOLECULE: [Cl][Fe][Cl] [iron(II) chloride]
TEST_RESULT: 43.1
//
MOLECULE: [Cl][Sn][Cl] [tin(II) chloride]
TEST_RESULT: -15

I. [Cl][Fe]([Cl])[Cl] [iron(III) chloride]
II. CC#N.CC#N.CC#N.CC#N.F[B-](F)(F)F.[Cu+] [tetrakis(acetonitrile)copper(I) tetrafluoroborate]
Prompt line: I would appreciate it if you could say which entry, I or II , has the lower normalised percent inhibition value. Answer format: the label of the selected item.
Response line: I
(I: 36.7%, II: 102%)

This collection of values is drawn from the supplement of paper PMC11628255.
